Overview of reported relative viability across a group of compounds:
# System: NCI-H1437
# Test Summary: relative viability (nuclei count vs DMSO), 5 days (fraction); higher = more cells survive
# Protocol Conditions: first compound 0.05 µM

Compound	relative viability
CC1(C)CCC(c2ccc(Cl)cc2)=C(CN2CCN(c3ccc(C(=O)NS(=O)(=O)c4ccc(N[C@H](CCN5CCOCC5)CSc5ccccc5)c(S(=O)(=O)C(F)(F)F)c4)cc3)CC2)C1 [Navitoclax] + COc1cc2c(Oc3ccc(NC(=O)C4(C(=O)Nc5ccc(F)cc5)CC4)cc3F)ccnc2cc1OCCCN1CCOCC1 [Foretinib] (partner 0.25 µM)	1.1
CC1(C)CCC(c2ccc(Cl)cc2)=C(CN2CCN(c3ccc(C(=O)NS(=O)(=O)c4ccc(N[C@H](CCN5CCOCC5)CSc5ccccc5)c(S(=O)(=O)C(F)(F)F)c4)cc3)CC2)C1 [Navitoclax] + CC(=O)Nc1cccc(-n2c(=O)n(C3CC3)c(=O)c3c(Nc4ccc(I)cc4F)n(C)c(=O)c(C)c32)c1 [Trametinib] (partner 0.02 µM)	0.359
CC1(C)CCC(c2ccc(Cl)cc2)=C(CN2CCN(c3ccc(C(=O)NS(=O)(=O)c4ccc(N[C@H](CCN5CCOCC5)CSc5ccccc5)c(S(=O)(=O)C(F)(F)F)c4)cc3)CC2)C1 [Navitoclax] + C[C@]1(O)C[C@@H](c2nc(-c3ccc4ccc(-c5ccccc5)nc4c3)c3c(N)nccn32)C1 [Linsitinib] (partner 1 µM)	1.02
